All values here come from ChEMBL document CHEMBL3217743.

Molecular target: UniProt:P05177
Sequence (P05177 whole entry): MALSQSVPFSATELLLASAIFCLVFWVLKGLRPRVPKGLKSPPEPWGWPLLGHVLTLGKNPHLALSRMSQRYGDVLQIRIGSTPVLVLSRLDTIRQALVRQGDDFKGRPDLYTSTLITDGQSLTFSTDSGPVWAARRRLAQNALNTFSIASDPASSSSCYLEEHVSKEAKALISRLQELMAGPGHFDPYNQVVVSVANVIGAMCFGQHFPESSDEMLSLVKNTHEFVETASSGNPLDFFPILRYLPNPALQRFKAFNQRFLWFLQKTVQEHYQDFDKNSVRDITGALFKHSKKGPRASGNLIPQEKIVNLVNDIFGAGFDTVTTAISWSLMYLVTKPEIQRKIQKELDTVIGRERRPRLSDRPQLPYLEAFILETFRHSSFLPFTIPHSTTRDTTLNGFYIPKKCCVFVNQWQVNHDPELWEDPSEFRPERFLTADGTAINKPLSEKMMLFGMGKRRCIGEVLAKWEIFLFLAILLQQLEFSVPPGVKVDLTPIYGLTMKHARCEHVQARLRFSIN
Experiment: Inhibition of CYP1A2 (unknown origin) at 10 uM relative to control
Type: ADME
metric: inhibition at 10 µM

Param readout = inhibition at 10 µM; param system = UniProt:P05177; param query = CSc1nc(N2C[C@@H]3[C@H](C2)[C@H]3C(=O)O)ccc1C(=O)NC12CC3CC(CC(C3)C1)C2 ; response: value < 25%

###

Assay: Volume of distribution at steady state in mouse at 1 to 3 mg/kg
Format: ADME, organism-based
Set-up: dose 1-3 mg/kg
Conditions: in vivo, read-out: Vdss
metric: Vd (L/kg)
Give a bare numeral; the unit L/kg is implied.

Data request, read-out Vd, for CSc1nc(N2C[C@@H]3[C@H](C2)[C@H]3C(=O)O)ccc1C(=O)NC12CC3CC(CC(C3)C1)C2 1.2
